Entry source: patent US11312705B2

Each item that follows carries a reported IC50.
targetDesc: adenosine A2b receptor (A2bR) (Homo sapiens (Human), UniProt P29275)
Sequence (P29275 whole entry): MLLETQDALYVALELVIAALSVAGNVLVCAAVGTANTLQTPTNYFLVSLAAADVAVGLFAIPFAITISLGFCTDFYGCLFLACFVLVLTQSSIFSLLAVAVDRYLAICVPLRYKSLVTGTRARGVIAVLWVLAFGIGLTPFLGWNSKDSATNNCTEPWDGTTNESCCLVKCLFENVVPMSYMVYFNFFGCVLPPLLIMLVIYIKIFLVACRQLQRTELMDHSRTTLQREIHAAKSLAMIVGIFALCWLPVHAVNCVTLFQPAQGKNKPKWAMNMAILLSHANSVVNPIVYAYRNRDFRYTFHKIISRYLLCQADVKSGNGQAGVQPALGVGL
assayOverview: Inhibition of adenosine A2b receptor cAMP signaling pathway (HTRF cAMP, CHO-K1/A2bR cells)
Format: cell-based
conditionSet: Table 3; CHO-K1/A2bR cells, ethyl carbazole 1 μM, cAMP HTRF
The number alone won't do; follow it with the unit.

Cc1cc(-c2c(-c3cccc(F)c3)nc(N)n3cnnc23)cc(C(F)(F)F)n1 : 86.3 nM
Cc1cc(-c2c(-c3ccccc3F)nc(N)n3cnnc23)cc(C(F)(F)F)n1 : 134 nM
Nc1nc(-c2ccccc2)c(-c2ccc3[nH]ncc3c2)c2nncn12 : 91 nM

Q: Fill in the blank: the reported IC50 of Cc1cc(-c2c(-c3ccccc3F)nc(N)n3cnnc23)cc(C)n1 is ____.
A: 85.4 nM

Q: Would you mind telling me what IC50 value was observed for Cc1cc(-c2c(-c3ccc(F)cc3)nc(N)n3cnnc23)cc(C(F)(F)F)n1 ?
A: 122 nM

----------
targetDesc: adenosine A1 receptor (A1R) (Homo sapiens (Human), UniProt P30542)
Sequence (P30542 whole entry): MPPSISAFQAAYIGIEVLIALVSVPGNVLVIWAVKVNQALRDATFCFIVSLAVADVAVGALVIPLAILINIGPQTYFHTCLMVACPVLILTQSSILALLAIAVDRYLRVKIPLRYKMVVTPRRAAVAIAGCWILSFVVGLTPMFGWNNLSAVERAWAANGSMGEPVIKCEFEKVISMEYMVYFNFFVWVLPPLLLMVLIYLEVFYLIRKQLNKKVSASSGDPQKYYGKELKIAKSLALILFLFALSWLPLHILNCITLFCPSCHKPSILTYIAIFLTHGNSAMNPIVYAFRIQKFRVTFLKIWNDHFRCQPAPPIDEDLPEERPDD
assayOverview: Inhibition of adenosine A1 receptor cAMP signaling pathway (HTRF cAMP, CHO-K1/A1R cells)
Assay type: cell-based
conditionSet: Table 2; selectivity A1R over A2aR
readoutLabel: IC50 ratio (A1R/A2aR)
Returns: the value as a bare number; no unit string appended.

Cc1cc(-c2c(-c3ccc(F)cc3)nc(N)n3cnnc23)cc(C)n1 : 127
Cc1cc(-c2c(-c3ccccc3F)nc(N)n3cnnc23)cc(C(F)F)n1 : 148

As a next step, examine the compound that follows.
Q: So what's the measured IC50 ratio (A1R/A2aR) for this one? Cc1cc(-c2c(-c3ccccc3)nc(N)n3cnnc23)cc(C)n1
A: 680

----------
targetDesc: adenosine A2a receptor (A2aR) (Homo sapiens (Human), UniProt P29274)
Sequence (P29274 whole entry): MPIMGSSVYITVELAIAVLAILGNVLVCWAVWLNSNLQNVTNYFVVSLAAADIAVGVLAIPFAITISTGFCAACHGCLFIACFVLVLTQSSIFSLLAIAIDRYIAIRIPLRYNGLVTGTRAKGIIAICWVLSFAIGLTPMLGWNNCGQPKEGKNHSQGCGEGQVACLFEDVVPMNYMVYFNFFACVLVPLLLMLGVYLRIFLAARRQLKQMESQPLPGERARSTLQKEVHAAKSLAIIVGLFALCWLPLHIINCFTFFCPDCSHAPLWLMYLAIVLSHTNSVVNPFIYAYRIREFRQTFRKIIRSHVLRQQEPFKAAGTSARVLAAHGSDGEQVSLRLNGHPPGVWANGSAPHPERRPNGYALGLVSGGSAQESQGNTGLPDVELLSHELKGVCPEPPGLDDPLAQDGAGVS
assayOverview: Inhibition of adenosine A2a receptor cAMP signaling pathway (HTRF cAMP, CHO-K1/A2aR cells)
Format: cell-based
conditionSet: Table 1, ethyl carbazole 20 nM
readoutLabel: IC50 (nM)
The reply should be a number in nM, with the unit left off.

Below: 3 molecules and their reported IC50.
Cc1cc(-c2c(-c3ccc(F)cc3F)nc(N)n3cnnc23)cc(C(F)(F)F)n1 : 3.96
Nc1nc(-c2ccccc2)c(-c2cc(Cl)nc(C(F)(F)F)c2)c2nncn12 : 0.23
Cc1cc(-c2c(-c3ccccc3F)nc(N)n3cnnc23)cc(Cl)n1 : 0.5

Q: Query for adenosine A2a receptor (A2aR) (Homo sapiens (Human), UniProt P29274): what IC50 does the record show for Cc1cc(-c2c(-c3ccc(F)cc3F)nc(N)n3cnnc23)cc(Cl)n1 ?
A: 2.04

Q: What IC50 appears in the records for this molecule with adenosine A2a receptor (A2aR) (Homo sapiens (Human), UniProt P29274)? Cc1cc(-c2c(-c3ccccc3F)nc(N)n3cnnc23)cc(CF)n1
A: 2.59

Q: What reported IC50 corresponds to Cc1cc(-c2c(-c3ccccc3)nc(N)n3cnnc23)cc(C)n1 on adenosine A2a receptor (A2aR) (Homo sapiens (Human), UniProt P29274)?
A: 0.15

----------
Reported IC50 ratio (A2bR/A2aR) values follow for various compounds
targetDesc: adenosine A2b receptor (A2bR) (Homo sapiens (Human), UniProt P29275)
assayOverview: Inhibition of adenosine A2b receptor cAMP signaling pathway (HTRF cAMP, CHO-K1/A2bR cells)
Assay type: cell-based
conditionSet: Table 3; selectivity A2bR over A2aR
Kindly provide the number alone.

Q: Requested field: IC50 ratio (A2bR/A2aR). Item: Cc1cc(-c2c(-c3ccccc3F)nc(N)n3cnnc23)cc(CF)n1 [Example 57]
A: 81

Q: Sample Cc1cc(-c2c(-c3ccc(F)cc3F)nc(N)n3cnnc23)cc(C(F)F)n1 [Example 20] — what was its IC50 ratio (A2bR/A2aR)?
A: 224

Q: Name the recorded IC50 ratio (A2bR/A2aR) for Cc1cc(-c2c(-c3ccc(F)cc3)nc(N)n3cnnc23)cc(CF)n1 [Example 55] .
A: 75

Q: Name the recorded IC50 ratio (A2bR/A2aR) for Cc1cc(-c2c(-c3ccc(Cl)cc3F)nc(N)n3cnnc23)cc(C(F)F)n1 [Example 59] .
A: 290

Q: Recorded IC50 ratio (A2bR/A2aR) of Cc1cc(-c2c(-c3ccccc3F)nc(N)n3cnnc23)cc(C(F)F)n1 [Example 56] , please.
A: 67

Q: What value of IC50 ratio (A2bR/A2aR) has been recorded for this entry: Cc1cc(-c2c(-c3ccc(C)o3)nc(N)n3cnnc23)cc(C(F)(F)F)n1 [Example 8]
A: 1125

Q: Request the reported IC50 ratio (A2bR/A2aR) associated with Cc1cc(-c2c(-c3ccccc3)nc(N)n3cnnc23)cc(C2CC2)n1 [Example 30]
A: 92

Q: Requested read-out: IC50 ratio (A2bR/A2aR). Entry: Cc1cc(-c2c(-c3ccc(F)cc3)nc(N)n3cnnc23)cc(Cl)n1 [Example 15]
A: 582

----------
targetDesc: adenosine A2a receptor (A2aR) (Homo sapiens (Human), UniProt P29274)
assayOverview: Inhibition of adenosine A2a receptor cAMP signaling pathway (HTRF cAMP, CHO-K1/A2aR cells)
Format: cell-based
conditionSet: Table 1, ethyl carbazole 20 nM
readoutLabel: log10 of IC50 (log10 of the value in nM)
In plain terms, each number is the log10 of measured IC50 in nM.

Cc1cc(-c2c(-c3ccc(Cl)cc3F)nc(N)n3cnnc23)cc(Cl)n1 : 0.55
Cc1cc(-c2c(-c3ccc(F)cc3F)nc(N)n3cnnc23)cc(C(F)F)n1 : 0.37
Nc1nc(-c2ccccc2)c(-c2cc(F)c3[nH]ncc3c2)c2nncn12 : -0.85
CCc1cc(-c2c(-c3ccccc3)nc(N)n3cnnc23)cc(C)n1 : -0.38
Nc1nc(-c2ccccc2)c(-c2cc(C(F)(F)F)c3[nH]ncc3c2)c2nncn12 : -0.60

Q: Param item = Cc1cc(-c2c(-c3ccccc3)nc(N)n3cnnc23)cc2cccnc12 ; retrieve measured log10 of IC50.
A: -1.05

Q: GET /values?readout=log10 of IC50&item= Cc1cc(-c2c(-c3ccc(F)cc3)nc(N)n3cnnc23)cc(CF)n1
A: 0.02
